Target: BRM (Homo sapiens)
Sequence (P51531 whole entry): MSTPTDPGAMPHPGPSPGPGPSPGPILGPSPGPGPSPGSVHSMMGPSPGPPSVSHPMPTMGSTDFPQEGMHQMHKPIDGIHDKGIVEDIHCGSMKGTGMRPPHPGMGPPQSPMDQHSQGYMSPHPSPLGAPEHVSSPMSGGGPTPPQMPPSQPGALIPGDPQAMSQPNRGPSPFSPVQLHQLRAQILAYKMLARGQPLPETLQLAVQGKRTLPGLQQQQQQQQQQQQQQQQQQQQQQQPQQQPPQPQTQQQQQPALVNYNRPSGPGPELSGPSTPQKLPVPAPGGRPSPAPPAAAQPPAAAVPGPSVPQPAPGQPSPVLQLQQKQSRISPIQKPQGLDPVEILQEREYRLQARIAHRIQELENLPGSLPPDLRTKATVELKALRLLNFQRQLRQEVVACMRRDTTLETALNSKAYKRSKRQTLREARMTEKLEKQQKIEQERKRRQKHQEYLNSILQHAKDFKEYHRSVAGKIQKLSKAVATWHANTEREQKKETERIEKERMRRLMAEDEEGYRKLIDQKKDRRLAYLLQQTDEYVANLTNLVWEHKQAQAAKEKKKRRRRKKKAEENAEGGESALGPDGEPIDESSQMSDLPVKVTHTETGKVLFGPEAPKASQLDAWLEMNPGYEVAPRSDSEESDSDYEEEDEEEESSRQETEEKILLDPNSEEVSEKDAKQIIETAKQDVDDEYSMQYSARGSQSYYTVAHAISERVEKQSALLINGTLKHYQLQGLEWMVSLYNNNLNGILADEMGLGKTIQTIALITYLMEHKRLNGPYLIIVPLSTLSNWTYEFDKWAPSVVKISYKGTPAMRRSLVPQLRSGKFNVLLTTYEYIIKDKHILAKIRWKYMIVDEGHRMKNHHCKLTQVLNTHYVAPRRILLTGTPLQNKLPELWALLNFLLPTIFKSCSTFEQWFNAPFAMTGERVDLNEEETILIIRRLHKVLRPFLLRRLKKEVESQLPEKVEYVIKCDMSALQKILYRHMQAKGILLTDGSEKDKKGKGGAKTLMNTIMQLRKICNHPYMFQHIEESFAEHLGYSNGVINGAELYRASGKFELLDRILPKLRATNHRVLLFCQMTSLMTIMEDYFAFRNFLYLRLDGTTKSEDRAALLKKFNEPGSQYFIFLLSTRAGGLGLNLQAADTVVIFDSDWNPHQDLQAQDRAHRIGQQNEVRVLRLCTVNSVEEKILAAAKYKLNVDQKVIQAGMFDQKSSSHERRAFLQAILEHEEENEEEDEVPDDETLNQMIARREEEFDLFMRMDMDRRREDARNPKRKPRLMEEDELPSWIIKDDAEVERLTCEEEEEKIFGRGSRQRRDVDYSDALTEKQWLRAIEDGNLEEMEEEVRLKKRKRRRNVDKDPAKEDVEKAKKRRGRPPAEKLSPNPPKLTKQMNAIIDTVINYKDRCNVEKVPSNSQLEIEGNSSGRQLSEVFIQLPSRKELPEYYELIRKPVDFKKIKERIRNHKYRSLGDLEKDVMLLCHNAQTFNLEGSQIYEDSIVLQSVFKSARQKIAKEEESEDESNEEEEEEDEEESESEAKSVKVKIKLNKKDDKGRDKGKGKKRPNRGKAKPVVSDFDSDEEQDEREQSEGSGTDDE
Assay: Immunofluorescence assay for BRM degradation in SW1573 cells
Type: cell-based
Set-up: treated overnight at 4° C. with either BRM primary antibody (Cell signaling Cat #11966) or BRG primary antibody; endogenous in cells; host or cells: SW1573
Conditions: 20 hours incubation, immunofluorescence mean nuclear signal, read-out: BRM IF Degradation IC50
Description: Example B-2: Immunofluorescence Assay for BRM and BRG1 Degraders SW1573 cells were seeded at 3000 cells/well in 384 well plates. The next day, compounds were added using an Echo dispenser. […] Harmony software (Perking Elmer) was used to quantify the mean nuclear signaling intensity of BRM or BRG signaling per cell in each well. Dose responses were determined from the concentration dependent response of mean nuclear signal intensity with data normalized to a known degrader control. […]
Item-by-item account of DC50

Record excerpt, results attached:
Nc1nnc(-c2ccccc2O)cc1N1CC2CCC(C1)N2c1ccnc(C#CCN2CC3CC(C2)C3O)c1 (stereo not shown)    < 10 nM
CC1CN(CC#Cc2cc(N3C4CCC3CN(c3cc(-c5ccccc5O)nnc3N)C4)ccn2)CC(C)O1 (stereo not shown)    10 to 100 nM
Nc1nnc(-c2ccccc2O)cc1N1CC2CCC(C1)N2c1ccnc(C#CCN2CC[C@@]3(O)C[C@H]3C2)c1    10 to 100 nM

DC50 measured on Nc1nnc(-c2ccccc2O)cc1N1CC2CCC(C1)N2c1ccnc(C#CCN2CC3CC3(CO)C2)c1 (stereo not shown) = < 10 nM

###

Item-by-item account of DC50
biological target: BRG1 (Homo sapiens, UniProt P51532); construct: either BRM primary antibody (Cell signaling Cat #11966) or BRG primary antibody (Abcam, ab 110641); endogenous in cells; host or cells: SW1573; test: Immunofluorescence assay for BRG1 degradation in SW1573 cells; type: cell-based; details: 20 hours incubation, immunofluorescence mean nuclear signal, read-out: BRG1 IF Degradation IC50
Sequence (P51532 whole entry): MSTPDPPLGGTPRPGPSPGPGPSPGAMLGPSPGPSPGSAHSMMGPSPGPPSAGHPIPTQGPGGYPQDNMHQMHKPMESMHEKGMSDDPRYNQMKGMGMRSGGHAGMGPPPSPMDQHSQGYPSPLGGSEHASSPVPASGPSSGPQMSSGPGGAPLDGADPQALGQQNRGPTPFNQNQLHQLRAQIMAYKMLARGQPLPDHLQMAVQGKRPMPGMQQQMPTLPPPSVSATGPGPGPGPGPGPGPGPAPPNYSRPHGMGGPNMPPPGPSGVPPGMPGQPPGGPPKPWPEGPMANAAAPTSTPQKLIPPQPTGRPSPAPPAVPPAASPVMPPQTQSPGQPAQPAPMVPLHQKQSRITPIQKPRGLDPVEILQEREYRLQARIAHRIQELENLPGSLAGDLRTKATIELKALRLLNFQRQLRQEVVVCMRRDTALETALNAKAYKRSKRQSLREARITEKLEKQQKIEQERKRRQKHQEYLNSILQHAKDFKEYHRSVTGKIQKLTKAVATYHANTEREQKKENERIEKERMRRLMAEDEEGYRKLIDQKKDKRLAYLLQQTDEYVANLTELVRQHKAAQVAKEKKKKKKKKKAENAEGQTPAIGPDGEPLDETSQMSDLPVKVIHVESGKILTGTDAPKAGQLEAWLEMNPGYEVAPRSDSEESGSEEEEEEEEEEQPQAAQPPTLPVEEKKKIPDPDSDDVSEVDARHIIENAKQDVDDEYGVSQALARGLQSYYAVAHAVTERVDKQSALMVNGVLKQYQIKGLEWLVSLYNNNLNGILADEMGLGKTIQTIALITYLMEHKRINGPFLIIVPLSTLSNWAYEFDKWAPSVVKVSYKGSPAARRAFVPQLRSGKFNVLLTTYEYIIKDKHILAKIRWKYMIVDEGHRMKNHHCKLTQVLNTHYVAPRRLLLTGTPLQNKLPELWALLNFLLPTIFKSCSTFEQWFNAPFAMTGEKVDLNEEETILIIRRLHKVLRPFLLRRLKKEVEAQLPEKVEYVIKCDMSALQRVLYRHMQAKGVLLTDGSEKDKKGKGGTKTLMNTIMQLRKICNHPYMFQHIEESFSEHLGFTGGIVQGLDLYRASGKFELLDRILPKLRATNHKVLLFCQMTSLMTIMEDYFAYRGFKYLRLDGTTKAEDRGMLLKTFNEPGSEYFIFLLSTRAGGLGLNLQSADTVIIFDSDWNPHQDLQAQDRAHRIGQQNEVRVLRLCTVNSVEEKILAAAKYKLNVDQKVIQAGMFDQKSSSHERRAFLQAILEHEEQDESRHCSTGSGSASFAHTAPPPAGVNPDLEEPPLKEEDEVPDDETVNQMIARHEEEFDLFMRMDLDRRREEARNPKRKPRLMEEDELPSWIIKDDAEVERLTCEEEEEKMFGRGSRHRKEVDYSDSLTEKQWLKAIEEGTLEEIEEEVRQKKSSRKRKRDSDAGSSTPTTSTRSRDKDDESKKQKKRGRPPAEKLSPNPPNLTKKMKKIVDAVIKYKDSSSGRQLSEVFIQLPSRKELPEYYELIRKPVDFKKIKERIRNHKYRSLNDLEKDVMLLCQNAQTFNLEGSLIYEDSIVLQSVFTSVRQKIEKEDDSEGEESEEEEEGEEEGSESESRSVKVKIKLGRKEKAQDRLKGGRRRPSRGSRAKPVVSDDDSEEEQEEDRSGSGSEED

Record excerpt, results attached:
Nc1nnc(-c2ccccc2O)cc1N1CC2CCC(C1)N2c1ccnc(C#CCN2CCn3cncc3C2)c1    > 0.1 µM
Nc1nnc(-c2ccccc2O)cc1N1CC2CCC(C1)N2c1ccnc(C#CCN2CCC23CCOC3)c1 (stereo not shown) [Compound 167]    < 0.01 µM
Nc1nnc(-c2ccccc2O)cc1N1CC2CCC(C1)N2c1ccnc(C#CCN2CC3CCOCC3C2)c1 (stereo not shown)    < 0.01 µM
CC1(C)CCCN(CC#Cc2cc(N3C4CCC3CN(c3cc(-c5ccccc5O)nnc3N)C4)ccn2)CC1    < 0.01 µM
Nc1nnc(-c2ccccc2O)cc1N1CC2CCC(C1)N2c1ccnc(C#CCN2CC3(CC3)C2)c1    < 0.01 µM

DC50 measured on Nc1nnc(-c2ccccc2O)cc1N1CC2CCC(C1)N2c1ccnc(C#CCN2CC3CC2CO3)c1 (stereo not shown) = < 0.01 µM

DC50 measured on CC1(C)CC(O)C(O)CN(CC#Cc2cc(N3C4CCC3CN(c3cc(-c5ccccc5O)nnc3N)C4)ccn2)C1 (stereo not shown) = > 0.1 µM

###

target: BRM (Homo sapiens); assay: Immunofluorescence assay for BRM degradation in SW1573 cells; type: cell-based; design: treated overnight at 4° C. with either BRM primary antibody (Cell signaling Cat #11966) or BRG primary antibody; endogenous in cells; host or cells: SW1573; details: 20 hours incubation, immunofluorescence mean nuclear signal, read-out: BRM IF Degradation IC50
MEASUREMENT KIND: DC50

Record excerpt, results attached:
Nc1nnc(-c2ccccc2O)cc1N1CC2CCC(C1)N2c1ccnc(C#CC2CCOCC2)c1 [Compound 22]    > 100 nM
Nc1nnc(-c2ccccc2O)cc1N1CC2CCC(C1)N2c1ccnc(C#CCN2CCCCC(CO)C2)c1 (stereo not shown) [Compound 214]    < 10 nM
Nc1nnc(-c2ccccc2O)cc1N1CC2CCC(C1)N2c1ccnc(C#CCN2CCCC(C(F)(F)F)CC2)c1 (stereo not shown) [Compound 209]    < 10 nM
Nc1nnc(-c2ccccc2O)cc1N1CC2CCC(C1)N2c1ccnc(C#CCN2CC3CCCCC3C2)c1 (stereo not shown) [Compound 39]    < 10 nM
CC1(C)CN(CC#Cc2cc(N3C4CCC3CN(c3cc(-c5ccccc5O)nnc3N)C4)ccn2)CCO1 [Compound 119]    > 100 nM
Nc1nnc(-c2ccccc2O)cc1N1CC2CCC(C1)N2c1ccnc(C#CC2CCCNC2)c1 (stereo not shown) [Compound 8]    10 to 100 nM

Field: next compound
Entry Nc1nnc(-c2ccccc2O)cc1N1CC2CCC(C1)N2c1ccnc(C#CCN2CCC3(CCC3)C2)c1 [Compound 129] , BRM (Homo sapiens) data, DC50 value: < 10 nM
